# study target: ColH-PD (peptidase domain of collagenase H) (Hathewaya histolytica, UniProt Q46085)
# Sequence (Q46085 331-721 limits assumed): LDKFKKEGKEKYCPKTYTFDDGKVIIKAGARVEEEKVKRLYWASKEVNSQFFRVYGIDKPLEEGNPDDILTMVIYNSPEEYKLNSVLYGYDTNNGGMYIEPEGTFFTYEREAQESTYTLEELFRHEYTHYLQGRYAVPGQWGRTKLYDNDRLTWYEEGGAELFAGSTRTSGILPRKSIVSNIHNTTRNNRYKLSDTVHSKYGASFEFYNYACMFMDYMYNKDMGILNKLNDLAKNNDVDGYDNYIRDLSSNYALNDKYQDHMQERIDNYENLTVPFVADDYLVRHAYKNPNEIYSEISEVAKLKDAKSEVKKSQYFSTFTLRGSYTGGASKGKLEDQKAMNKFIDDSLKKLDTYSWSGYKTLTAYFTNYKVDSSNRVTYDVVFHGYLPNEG
# test summary: biochemical
# study conditions: read-out: IC50
recorded endpoint: IC50 (µM)

item smiles: CC(=O)c1ccc(NC(=O)CP(=O)(O)O)cc1
recorded endpoint: IC50
measurement units: µM
numeric value: 7

###

# study target: ColH-PD (peptidase domain of collagenase H) (Hathewaya histolytica, UniProt Q46085)
# test summary: biochemical
Reported IC50 by item:
recorded endpoint: IC50

compound: CC(=O)c1ccc(NC(=O)Cc2c[nH]cn2)cc1
result: > 500 µM

compound: CC(=O)c1ccc(NC(=O)Cn2ccnn2)cc1
result: > 500 µM

compound: CC(=O)c1ccc(NC(=O)Cn2ccnc2)cc1
result: 448 µM

compound: O=C(CC(=O)Nc1ccccc1)NO [compound 11, N^1-Hydroxy-N^3-phenylmalonamide]
result: ~500 µM

compound: CC(=O)c1ccc(NC(=O)Cn2cncn2)cc1
result: > 500 µM

compound: CC(=O)c1ccc(NC(=O)CC#N)cc1 [compound 23, N-(4-Acetylphenyl)-2-cyanoacetamide]
result: > 500 µM

compound: CC(=O)c1ccc(NC(=O)Cn2cnnn2)cc1
result: > 500 µM

compound: O=C(O)CC(=O)Nc1ccccc1
result: > 500 µM

compound: NC(=O)CC(=O)Nc1ccccc1 [compound 8, N^1-Phenylmalonamide]
result: > 500 µM

###

Below: a set of entries, each annotated with reported IC50.
# study target: ColH-PD (peptidase domain of collagenase H) (Hathewaya histolytica, UniProt Q46085)
# test summary: biochemical

compound: O=C(O)CCC(=O)Nc1ccccc1 [compound 10, 4-Oxo-4-(phenylamino)butanoic acid]
study target: ColH-PD (peptidase domain of collagenase H) (Hathewaya histolytica, UniProt Q46085)
IC50: > 500 µM
--
compound: CC(=O)c1ccc(NC(=O)CS(=O)(=O)O)cc1 [compound 24]
study target: ColH-PD (peptidase domain of collagenase H) (Hathewaya histolytica, UniProt Q46085)
IC50: > 500 µM
--
compound: CC(=O)c1ccc(NC(=O)Cn2ncnn2)cc1 [compound 18]
study target: ColH-PD (peptidase domain of collagenase H) (Hathewaya histolytica, UniProt Q46085)
IC50: > 500 µM
--
compound: CC(=O)c1ccc(NC(=O)Cc2nn[nH]n2)cc1 [compound 19]
study target: ColH-PD (peptidase domain of collagenase H) (Hathewaya histolytica, UniProt Q46085)
IC50: 22 µM
--
compound: CCOP(C)(=O)CC(=O)Nc1ccc(C(C)=O)cc1 (stereo not drawn) [compound 27]
study target: ColH-PD (peptidase domain of collagenase H) (Hathewaya histolytica, UniProt Q46085)
IC50: > 500 µM
--
compound: CC(=O)c1ccc(NC(=O)CP(C)(=O)O)cc1 [compound 25]
study target: ColH-PD (peptidase domain of collagenase H) (Hathewaya histolytica, UniProt Q46085)
IC50: > 500 µM
